biological target: PTPRS (Homo sapiens, UniProt Q13332); test: pNPP hydrolysis by recombinant PTPRS phosphatase; assay type: biochemical; settings: untitled table after Table 4; mean, SEM in wrapped line
Sequence (Q13332 30-1948, species assumed): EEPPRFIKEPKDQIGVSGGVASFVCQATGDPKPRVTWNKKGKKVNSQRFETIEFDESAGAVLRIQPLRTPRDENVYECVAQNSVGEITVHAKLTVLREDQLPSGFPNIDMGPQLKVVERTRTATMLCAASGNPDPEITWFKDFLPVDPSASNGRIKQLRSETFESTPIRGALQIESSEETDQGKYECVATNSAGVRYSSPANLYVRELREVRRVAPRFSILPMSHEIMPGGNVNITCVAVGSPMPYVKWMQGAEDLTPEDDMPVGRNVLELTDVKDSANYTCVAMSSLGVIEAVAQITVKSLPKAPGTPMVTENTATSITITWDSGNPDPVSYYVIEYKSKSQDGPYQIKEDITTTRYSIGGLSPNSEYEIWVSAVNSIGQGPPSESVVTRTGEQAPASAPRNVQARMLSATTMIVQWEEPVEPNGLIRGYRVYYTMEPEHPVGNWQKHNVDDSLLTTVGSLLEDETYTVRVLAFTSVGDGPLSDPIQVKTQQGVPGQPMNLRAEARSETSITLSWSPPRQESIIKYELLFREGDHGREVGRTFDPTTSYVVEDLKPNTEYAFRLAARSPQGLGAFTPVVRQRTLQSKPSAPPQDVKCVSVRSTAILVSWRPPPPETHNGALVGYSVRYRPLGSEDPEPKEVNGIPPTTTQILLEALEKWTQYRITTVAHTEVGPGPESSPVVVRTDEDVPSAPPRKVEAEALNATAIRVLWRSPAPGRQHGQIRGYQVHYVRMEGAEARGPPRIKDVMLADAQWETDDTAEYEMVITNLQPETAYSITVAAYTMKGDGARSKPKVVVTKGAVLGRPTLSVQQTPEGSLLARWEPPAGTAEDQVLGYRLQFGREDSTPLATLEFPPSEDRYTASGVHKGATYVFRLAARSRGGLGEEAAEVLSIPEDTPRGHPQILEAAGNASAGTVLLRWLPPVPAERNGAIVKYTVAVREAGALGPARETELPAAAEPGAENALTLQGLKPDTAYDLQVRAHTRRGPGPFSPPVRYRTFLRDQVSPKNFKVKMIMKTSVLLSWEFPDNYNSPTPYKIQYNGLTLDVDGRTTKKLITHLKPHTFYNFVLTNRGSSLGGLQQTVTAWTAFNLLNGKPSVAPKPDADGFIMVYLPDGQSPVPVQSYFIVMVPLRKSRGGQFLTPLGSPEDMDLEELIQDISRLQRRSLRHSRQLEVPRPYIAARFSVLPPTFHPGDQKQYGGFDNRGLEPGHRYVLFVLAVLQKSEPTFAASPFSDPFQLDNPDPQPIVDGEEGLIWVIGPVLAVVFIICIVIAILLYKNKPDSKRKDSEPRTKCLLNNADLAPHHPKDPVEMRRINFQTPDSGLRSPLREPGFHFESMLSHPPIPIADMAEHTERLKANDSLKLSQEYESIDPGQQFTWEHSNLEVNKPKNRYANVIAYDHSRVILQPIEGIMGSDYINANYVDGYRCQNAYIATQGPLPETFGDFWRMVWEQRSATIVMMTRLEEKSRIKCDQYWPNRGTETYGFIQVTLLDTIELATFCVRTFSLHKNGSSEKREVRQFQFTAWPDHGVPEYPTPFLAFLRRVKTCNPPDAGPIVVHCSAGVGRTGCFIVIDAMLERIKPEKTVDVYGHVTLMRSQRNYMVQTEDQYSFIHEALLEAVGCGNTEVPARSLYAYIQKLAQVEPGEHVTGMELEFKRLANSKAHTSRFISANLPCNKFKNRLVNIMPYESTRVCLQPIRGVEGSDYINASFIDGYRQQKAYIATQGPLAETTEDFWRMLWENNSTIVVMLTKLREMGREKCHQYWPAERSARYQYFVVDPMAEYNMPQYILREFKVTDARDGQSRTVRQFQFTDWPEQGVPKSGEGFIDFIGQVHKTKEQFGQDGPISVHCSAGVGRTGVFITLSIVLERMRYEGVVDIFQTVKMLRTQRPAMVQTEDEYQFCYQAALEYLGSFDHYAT
MEASURED_ATTRIBUTE: IC50 (µM)
# value in µM; strip the unit string

These solved cases illustrate the format of a correct answer.
COc1c(OCC=C(C)C)cc2c(c1C=O)CC(O)OC2=O (centres unmarked) ... 1.8
COc1c(OCC2CCCC2)cc2c(c1C=O)CC(O)OC2=O (centres unmarked) ... 0.61
COc1c(OCc2ccc(Oc3ccccc3)cc2)cc2c(c1C=O)CC(O)OC2=O (centres unmarked) ... 1.34
COc1c(OCCCCc2ccc(O)cc2O)cc2c(c1C=O)CC(O)OC2=O (centres unmarked) ... 2.27
COc1c(OCc2ccc(Br)cc2)cc2c(c1C=O)CC(O)OC2=O (centres unmarked) ... 5
COc1c(OCCC(C)C)cc2c(c1C=O)CC(O)OC2=O (centres unmarked) ... 2.76
COc1c(OCC2CCCCCC2)cc2c(c1C=O)CC(O)OC2=O (centres unmarked) ... 0.77
COc1c(OCc2ccc3ccccc3c2)cc2c(c1C=O)CC(O)OC2=O (centres unmarked) ... 4.61

Exam item: Please give measured IC50 of the following entry: COc1c(OCc2ccc(C)s2)cc2c(c1C=O)CC(O)OC2=O (centres unmarked)
Marked response: 1.4

Exam item: Consider the molecule COc1c(OCC2CCCCC2)cc2c(c1C=O)CC(O)OC2=O (centres unmarked) . State its measured IC50.
Marked response: 1.06

Exam item: Entry COc1c(OCc2ccccc2)cc2c(c1C=O)CC(O)OC2=O (centres unmarked) needs its IC50 filled in; supply it.
Marked response: 1.6

Exam item: Let me know recorded IC50 for COc1c(OCc2c(Cl)cc(Cl)cc2Cl)cc2c(c1C=O)CC(O)OC2=O (centres unmarked) , thanks.
Marked response: 2.2

Exam item: Give IC50 for COc1c(OCC2CCC2)cc2c(c1C=O)CC(O)OC2=O (centres unmarked)
Marked response: 2.85

----------
target: recombinant PTPRD (Homo sapiens, UniProt P23468); experiment: pNPP hydrolysis by recombinant PTPRD phosphatase; conditions: PTPRD IC50, untitled table after Table 4; mean, SEM in wrapped line; compounds with PTPRD IC50 <5 μM
Sequence (P23468 21-1912): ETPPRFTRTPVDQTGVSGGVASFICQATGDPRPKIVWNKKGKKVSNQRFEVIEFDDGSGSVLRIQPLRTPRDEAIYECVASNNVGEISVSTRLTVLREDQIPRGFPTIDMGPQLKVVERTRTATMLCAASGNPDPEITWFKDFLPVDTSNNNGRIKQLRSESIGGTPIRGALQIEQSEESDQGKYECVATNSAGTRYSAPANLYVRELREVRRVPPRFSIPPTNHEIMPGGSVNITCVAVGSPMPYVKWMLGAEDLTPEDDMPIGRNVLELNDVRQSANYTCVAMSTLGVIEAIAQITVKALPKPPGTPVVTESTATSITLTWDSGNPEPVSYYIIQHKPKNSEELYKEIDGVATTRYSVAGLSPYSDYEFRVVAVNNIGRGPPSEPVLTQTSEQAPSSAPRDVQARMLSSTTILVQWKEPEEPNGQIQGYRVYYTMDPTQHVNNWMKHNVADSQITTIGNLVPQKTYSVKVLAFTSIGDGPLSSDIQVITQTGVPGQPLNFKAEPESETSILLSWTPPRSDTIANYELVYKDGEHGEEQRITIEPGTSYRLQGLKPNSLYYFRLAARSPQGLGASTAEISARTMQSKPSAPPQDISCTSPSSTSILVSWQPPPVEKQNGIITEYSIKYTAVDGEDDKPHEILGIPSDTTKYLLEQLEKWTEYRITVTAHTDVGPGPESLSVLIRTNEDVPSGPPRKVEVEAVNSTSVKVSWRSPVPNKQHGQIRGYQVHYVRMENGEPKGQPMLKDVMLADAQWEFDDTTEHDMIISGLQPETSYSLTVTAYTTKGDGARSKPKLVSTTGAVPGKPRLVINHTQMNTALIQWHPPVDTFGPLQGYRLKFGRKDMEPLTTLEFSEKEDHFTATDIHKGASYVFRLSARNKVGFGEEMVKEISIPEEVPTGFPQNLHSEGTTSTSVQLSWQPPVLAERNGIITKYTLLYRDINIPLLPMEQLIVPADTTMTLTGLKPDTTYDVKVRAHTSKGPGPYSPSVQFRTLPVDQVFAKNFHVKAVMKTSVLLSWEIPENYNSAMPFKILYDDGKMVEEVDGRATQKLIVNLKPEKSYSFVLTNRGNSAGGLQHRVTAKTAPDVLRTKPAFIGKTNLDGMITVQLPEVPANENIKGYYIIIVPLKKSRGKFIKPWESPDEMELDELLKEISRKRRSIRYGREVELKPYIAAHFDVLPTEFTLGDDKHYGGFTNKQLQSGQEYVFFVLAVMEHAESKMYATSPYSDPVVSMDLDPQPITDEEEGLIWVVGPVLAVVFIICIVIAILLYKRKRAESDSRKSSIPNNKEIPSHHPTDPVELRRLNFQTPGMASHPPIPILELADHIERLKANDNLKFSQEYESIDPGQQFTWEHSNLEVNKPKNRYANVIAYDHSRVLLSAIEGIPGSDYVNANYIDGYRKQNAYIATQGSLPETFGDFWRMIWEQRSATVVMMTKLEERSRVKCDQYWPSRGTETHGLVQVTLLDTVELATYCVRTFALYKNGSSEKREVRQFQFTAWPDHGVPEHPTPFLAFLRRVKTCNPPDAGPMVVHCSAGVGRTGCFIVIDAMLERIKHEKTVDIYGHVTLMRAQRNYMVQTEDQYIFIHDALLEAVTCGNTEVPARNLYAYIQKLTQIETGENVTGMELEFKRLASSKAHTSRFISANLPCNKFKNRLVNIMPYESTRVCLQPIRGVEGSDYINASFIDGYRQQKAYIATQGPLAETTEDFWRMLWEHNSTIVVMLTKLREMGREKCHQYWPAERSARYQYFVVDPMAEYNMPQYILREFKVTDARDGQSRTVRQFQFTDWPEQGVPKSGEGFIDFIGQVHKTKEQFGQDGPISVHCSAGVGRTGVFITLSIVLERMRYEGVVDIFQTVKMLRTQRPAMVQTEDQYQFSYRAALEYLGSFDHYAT
Please use Condition met for IC50 under 4 µM and Condition not met for everything else, ties included.

Below, 4 compounds whose answers are already recorded.
COc1c(OCC2CCC2)cc2c(c1C=O)CC(O)OC2=O (stereo not drawn) ... Condition met
COc1c(OCc2ccc(Oc3ccc(F)cc3)cc2)cc2c(c1C=O)CC(O)OC2=O (stereo not drawn) ... Condition met
COc1cccc(COc2cc3c(c(C=O)c2OC)CC(O)OC3=O)c1 (stereo not drawn) ... Condition not met
COc1c(OCc2ccc(C)cc2)cc2c(c1C=O)CC(O)OC2=O (stereo not drawn) ... Condition met

Exam item: Here's an entry: COc1c(OCc2ccc(C)s2)cc2c(c1C=O)CC(O)OC2=O (stereo not drawn) . Is its IC50 below 4 µM?
Marked response: Condition met

Exam item: Regarding COc1c(OCCC(C)C)cc2c(c1C=O)CC(O)OC2=O (stereo not drawn) , kindly confirm whether its IC50 is beneath 4 µM.
Marked response: Condition met

Exam item: # TODO verify IC50 < 4 µM strictly for this compound: COc1c(OCc2c(Cl)cc(Cl)cc2Cl)cc2c(c1C=O)CC(O)OC2=O (stereo not drawn)
Marked response: Condition met

Exam item: Does the reported IC50 of COc1c(OCCCCc2ccc(O)cc2O)cc2c(c1C=O)CC(O)OC2=O (stereo not drawn) stay below 4 µM?
Marked response: Condition not met

Exam item: Please let me know if COc1c(OCc2ccc(Oc3ccccc3)cc2)cc2c(c1C=O)CC(O)OC2=O (stereo not drawn) shows IC50 below 4 µM.
Marked response: Condition met

Exam item: A record lists COc1c(OCC=C(C)C)cc2c(c1C=O)CC(O)OC2=O (stereo not drawn) . Is its IC50 below 4 µM?
Marked response: Condition met

Exam item: A record lists COc1c(OCCc2ccccc2)cc2c(c1C=O)CC(O)OC2=O (stereo not drawn) . Is its IC50 below 4 µM?
Marked response: Condition not met

Exam item: Is 4 µM strictly greater than the compound's reported IC50? compound: COc1c(OCC2CC2)cc2c(c1C=O)CC(O)OC2=O (stereo not drawn)
Marked response: Condition not met
